- TARGET_ENTITY: T1, beta-catenin (full-length, Uniprot ID P35222) (Homo sapiens (Human), UniProt P35222 2-781)
- T1 construct: The FP protocol says 'full-length beta-Catenin (Uniprot ID P35222)'; also called bCat; B-Catenin
- T1 sequence: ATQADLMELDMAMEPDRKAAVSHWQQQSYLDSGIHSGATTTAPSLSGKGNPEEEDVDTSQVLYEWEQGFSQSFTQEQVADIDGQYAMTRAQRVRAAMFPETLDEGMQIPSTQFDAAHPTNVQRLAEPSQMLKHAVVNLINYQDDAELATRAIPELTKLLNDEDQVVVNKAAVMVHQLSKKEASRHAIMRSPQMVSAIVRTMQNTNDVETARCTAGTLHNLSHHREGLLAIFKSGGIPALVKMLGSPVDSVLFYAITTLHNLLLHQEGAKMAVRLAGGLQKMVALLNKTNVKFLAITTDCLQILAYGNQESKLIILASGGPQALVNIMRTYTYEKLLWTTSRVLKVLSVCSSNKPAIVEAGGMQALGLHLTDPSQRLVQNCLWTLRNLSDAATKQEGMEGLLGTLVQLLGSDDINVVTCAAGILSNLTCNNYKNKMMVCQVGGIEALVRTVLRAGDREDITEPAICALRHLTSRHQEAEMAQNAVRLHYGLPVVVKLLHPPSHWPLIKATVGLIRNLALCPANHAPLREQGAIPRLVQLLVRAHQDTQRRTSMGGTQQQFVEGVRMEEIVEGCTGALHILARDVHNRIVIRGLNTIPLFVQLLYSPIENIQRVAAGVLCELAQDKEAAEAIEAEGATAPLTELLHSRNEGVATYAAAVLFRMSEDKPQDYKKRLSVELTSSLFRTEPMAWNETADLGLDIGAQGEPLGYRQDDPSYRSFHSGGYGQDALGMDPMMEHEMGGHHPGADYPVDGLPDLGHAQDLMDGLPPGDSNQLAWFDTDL
- RUN_DESCRIPTION: fluorescence polarization competition vs 5FAM-TCF4(10-53) on full-length beta-catenin
Starred links: 1 amine or outer side, 2 acyl side, 3 side chain; linkers in the order of their positions; H or OH if unused. Positions of bridges follow the written chain, without caps; N, C: chain ends. Non-standard residues stand in square brackets, D forms with d. Primed or numbered codes have the meaning given here. B5(4) = 2,2-bis(4-pentenyl)glycine = 2-amino-2-(pent-4-en-1-yl)hept-6-enoic acid (stitching residue), C=CCCCC(CCCC=C)(N[*:1])C(=O)[*:2]; SeN = (S)-5-(((allyloxy)carbonyl)(methyl)amino)-2-amino-2-methylpentanoic acid, C=CCOC(=O)N(C)CCC[C@](C)(N[*:1])C(=O)[*:2]; B5(28) = 2,2-bis(4-pentenyl)glycine, C=CCCCC(CCCC=C)(N[*:1])C(=O)[*:2]; αAllylPro = C=CC[C@@]1(C(=O)O)CCCN1; S8 = C=CCCCCCC[C@](C)(N)C(=O)O; Aib = CC(C)(N)C(=O)O
What pIC50 was measured for each of the following?
Hey, just a heads up that pIC50 is the negative log base 10 of the concentration in molar.

Value of pIC50 reported for the binder XDAXDQAAFVXFWQ (not fully specified; N-terminal Ac; PL3 at 1; B5 at 4; S8 at 11; C-terminal NH2; stapled by olefin metathesis (PL3-B5 and B5-S8), Stapled peptide) [I-127: Ac-PL3-Asp-Ala-B5-Asp-Gln-Ala-Ala-Phe-Val-S8-Phe-Trp-Gln-NH2] is 5.32

Value of pIC50 reported for the binder Ac-[αAllylPro]DA[B5(4)]DEAAFV[SeN]FWQ-NH2 (staple 1-4, 4-11, Stapled peptide) [I-131: Ac-PL3-Asp-Ala-B5-Asp-Glu-Ala-Ala-Phe-Val-SeN-Phe-Trp-Gln-NH2] is 5.67

Value of pIC50 reported for the binder Ac-[αAllylPro]DA[B5(28)]DEAAFV[S8]FW[Aib]-NH2 (staple 1-4, 4-11, Stapled peptide) [I-134: Ac-PL3-Asp-Ala-B5-Asp-Glu-Ala-Ala-Phe-Val-S8-Phe-Trp-Aib-NH2] is 5.57

Value source: patent US20240116985A1
